B1: r4_43_TrROS_Hall (parent)
chain: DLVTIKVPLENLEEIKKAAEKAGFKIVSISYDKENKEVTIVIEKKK

variants of: B1; assay: folding stability dG (cDNA display proteolysis); higher = more stable; conditions: PBS, room temperature
I'd appreciate it if you could supply folding stability dG values for the items below.
Reply with just the number (in kcal/mol).

Reported folding stability dG, variant V38P : ____
1.79

Item under review: L9R . Reported folding stability dG?
3.59

Given the variant E14A , what is its reported folding stability dG?
3.78

If you can, please state the reported folding stability dG value of E14M .
3.89

Would you mind telling me what folding stability dG value was observed for D32S ?
4.21

Name the reported folding stability dG value associated with the variant K33W
3.76

If you can, please state the reported folding stability dG value of A18E .
3.65

Which folding stability dG reading was recorded for the variant K46N ?
3.49

Quick check: folding stability dG of K46P ?
3.71

Fill in: folding stability dG of V27R is ___
3.96

Field request: folding stability dG | item: L2E
3.45

Which measured folding stability dG value corresponds to I29F ?
4.07

Given the entry I5L , report its measured folding stability dG.
4.01

State the recorded folding stability dG for this entry: K21T
3.9

Can you share its folding stability dG? I mean this variant: G23A
3.54

What measured folding stability dG goes with E10V ?
3.68

Return reported folding stability dG; argument: D1E
3.66

Please give the measured folding stability dG for this variant: E37G
3.72

Requested field: folding stability dG. Item: V7P
2.19

Please look up its folding stability dG: E14L
3.53

Look up folding stability dG: T39A
3.4

Can you share its folding stability dG? I mean this variant: F24T
2.88

Give its folding stability dG value. Item: E10T
3.75

Can you look up the measured folding stability dG of K17P for me?
2.14

What folding stability dG value was documented for this variant, N35V ?
3.17

If you can, please state the reported folding stability dG value of I29M .
3.79

I am curious: what folding stability dG value has been reported for Y31Q ?
3.23

Give its folding stability dG value. Item: T4P
3.02

Quick one: folding stability dG of V27N ?
3.24

So what does the record say about folding stability dG for F24K ?
2.51

Given D1L , state its recorded folding stability dG.
3.84

I have this variant here, E13R , and I need its recorded folding stability dG.
3.2

Give the measured folding stability dG of Y31M .
3.19

Looking for the measured folding stability dG of K6T , can you help?
3.77

State the recorded folding stability dG for this entry: A18Q
3.62

I'd like to know its folding stability dG. The variant in question is E13D
3.64

What does the data say about its folding stability dG? Entry: I26C
3

// query folding stability dG value for entry K6W
3.39

Consider the variant V3N and give its measured folding stability dG.
3.25

folding stability dG lookup needed for E20L , thanks.
3.96

Entry I42A : reported folding stability dG = ?
3.53

Fill in the blank: the reported folding stability dG of E14D is ____.
3.68

May I ask what folding stability dG has been recorded for D1Q ?
3.82

Fill in the blank: the reported folding stability dG of V41R is ____.
3.47

What does the record list as folding stability dG for V38A ?
3.79

Give its folding stability dG value. Item: I15E
3.39

The reported measurements were obtained from the MegaScale stability set (Tsuboyama et al. 2023).
